Where do these numbers come from? They come from paper PMC11574364.

Molecular target: RBM15B (Homo sapiens, UniProt Q8NDT2)
Sequence: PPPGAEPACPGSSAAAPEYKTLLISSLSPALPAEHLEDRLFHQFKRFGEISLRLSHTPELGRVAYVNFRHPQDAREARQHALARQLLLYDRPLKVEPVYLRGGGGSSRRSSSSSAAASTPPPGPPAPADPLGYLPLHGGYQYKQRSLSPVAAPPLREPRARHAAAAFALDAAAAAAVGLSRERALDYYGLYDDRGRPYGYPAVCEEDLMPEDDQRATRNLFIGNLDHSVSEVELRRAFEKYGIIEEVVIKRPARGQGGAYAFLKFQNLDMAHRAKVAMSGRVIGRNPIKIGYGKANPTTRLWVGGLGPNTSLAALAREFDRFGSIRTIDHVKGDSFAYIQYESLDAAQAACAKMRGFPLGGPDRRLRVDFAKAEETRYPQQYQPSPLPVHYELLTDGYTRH
Experiment: protein domain microarray probed with biotinylated miRNA; Domain array: 20 mM Tris-HCl pH 7.4, 200 mM KCl, 0.2 mM EDTA, 0.05% NP40, 2 ug/ul heparin, overnight 4 C. ORF array: PBS pH 7.0 with RNase inhibitor, 100 ng RNA; high values mean tight binding
Settings: ssRNA
Assign binding signal to each entry below.
Give the number first and the unit second.

Param item: `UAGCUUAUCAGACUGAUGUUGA` ; param system: RBM15B (Homo sapiens, UniProt Q8NDT2); output binding signal: 30.7 fluorescence intensity

Param item: `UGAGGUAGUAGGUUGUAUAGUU` ; param system: RBM15B (Homo sapiens, UniProt Q8NDT2); output binding signal: 42.7 fluorescence intensity

Param item: `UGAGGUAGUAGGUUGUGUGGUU` ; param system: RBM15B (Homo sapiens, UniProt Q8NDT2); output binding signal: 268 fluorescence intensity

Param item: `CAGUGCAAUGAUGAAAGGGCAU` ; param system: RBM15B (Homo sapiens, UniProt Q8NDT2); output binding signal: 128 fluorescence intensity

Param item: `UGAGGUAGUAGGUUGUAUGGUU` ; param system: RBM15B (Homo sapiens, UniProt Q8NDT2); output binding signal: 309 fluorescence intensity

###

Assign binding signal to each entry below.
Target: RBM38 (Homo sapiens)
Sequence: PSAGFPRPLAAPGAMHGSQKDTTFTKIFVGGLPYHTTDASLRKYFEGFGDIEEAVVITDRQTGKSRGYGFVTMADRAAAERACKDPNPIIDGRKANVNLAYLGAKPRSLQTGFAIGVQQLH
Experiment: protein domain microarray probed with biotinylated miRNA; Domain array: 20 mM Tris-HCl pH 7.4, 200 mM KCl, 0.2 mM EDTA, 0.05% NP40, 2 ug/ul heparin, overnight 4 C. ORF array: PBS pH 7.0 with RNase inhibitor, 100 ng RNA; high values mean tight binding
Details: ssRNA
Give the number first and the unit second.

binding signal measured on `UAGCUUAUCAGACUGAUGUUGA` = 1790 fluorescence intensity

binding signal measured on `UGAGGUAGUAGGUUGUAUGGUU` = 1540 fluorescence intensity

binding signal measured on `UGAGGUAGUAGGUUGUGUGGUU` = 1950 fluorescence intensity

binding signal measured on `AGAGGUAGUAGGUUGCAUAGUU` = 2320 fluorescence intensity

###

Assign binding signal to each entry below.
biological target: RBM25 (Homo sapiens, UniProt P49756); experiment: protein domain microarray probed with biotinylated miRNA; Domain array: 20 mM Tris-HCl pH 7.4, 200 mM KCl, 0.2 mM EDTA, 0.05% NP40, 2 ug/ul heparin, overnight 4 C. ORF array: PBS pH 7.0 with RNase inhibitor, 100 ng RNA; high values mean tight binding; conditions: ssRNA
Sequence (P49756 67-185): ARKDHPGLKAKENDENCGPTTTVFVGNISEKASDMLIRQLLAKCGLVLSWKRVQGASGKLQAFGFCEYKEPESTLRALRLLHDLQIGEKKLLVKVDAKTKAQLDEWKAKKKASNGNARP
Give the value in fluorescence intensity but do not write fluorescence intensity after it.

binding signal measured on `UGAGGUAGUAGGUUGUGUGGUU` = 98.3

binding signal measured on `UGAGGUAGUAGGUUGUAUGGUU` = 63.1

binding signal measured on `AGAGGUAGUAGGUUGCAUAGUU` = 39.5

binding signal measured on `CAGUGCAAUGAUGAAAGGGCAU` = 36
